Assignment: determine reported Target Concentration BLANK (phage screen NGS readout) for the given sequences.
# measured.on: beta-catenin (Homo sapiens)
# Construct: made in house; host or cells: E. coli BL21 (DE3) pLysS
# Sequence (P35222 134-665): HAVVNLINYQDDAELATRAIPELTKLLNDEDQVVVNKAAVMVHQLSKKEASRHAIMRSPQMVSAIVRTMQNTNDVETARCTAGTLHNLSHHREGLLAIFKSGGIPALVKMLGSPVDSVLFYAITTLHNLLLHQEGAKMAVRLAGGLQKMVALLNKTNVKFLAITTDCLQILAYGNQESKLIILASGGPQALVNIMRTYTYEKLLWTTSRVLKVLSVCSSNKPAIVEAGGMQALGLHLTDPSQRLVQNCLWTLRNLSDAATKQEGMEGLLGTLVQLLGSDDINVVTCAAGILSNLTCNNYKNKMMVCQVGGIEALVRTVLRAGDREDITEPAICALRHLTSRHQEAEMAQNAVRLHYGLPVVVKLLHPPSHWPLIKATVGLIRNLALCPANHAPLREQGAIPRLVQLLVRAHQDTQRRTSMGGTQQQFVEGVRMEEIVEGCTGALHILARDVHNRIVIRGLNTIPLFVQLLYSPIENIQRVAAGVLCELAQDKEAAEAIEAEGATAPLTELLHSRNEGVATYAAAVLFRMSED
# procedure.text: Phage Library Screening with NGS, beta-catenin
# Assay type: binding
# run.conditions: BLANK, second column

According to the records, this sequence DPATIRCYEAAFMCQYW displays Target Concentration BLANK (phage screen NGS readout) of 0

According to the records, this sequence DPAVQDCEWAAIYCELI displays Target Concentration BLANK (phage screen NGS readout) of 1

According to the records, this sequence DPAIIRCYEAAFYCQNY displays Target Concentration BLANK (phage screen NGS readout) of 0

According to the records, this sequence DPAHWRCEHAALLCWYN displays Target Concentration BLANK (phage screen NGS readout) of 0

According to the records, this sequence DPAVDECIIAAHICHIW displays Target Concentration BLANK (phage screen NGS readout) of 0

According to the records, this sequence DPAYWDCTHAALLCNLD displays Target Concentration BLANK (phage screen NGS readout) of 1

According to the records, this sequence DPAILDCQIAAIECEFA displays Target Concentration BLANK (phage screen NGS readout) of 0

According to the records, this sequence DPAWWQCDHAALICIAE displays Target Concentration BLANK (phage screen NGS readout) of 1

According to the records, this sequence DPAILECYEAAFECQYM displays Target Concentration BLANK (phage screen NGS readout) of 0

According to the records, this sequence DPAFESCFLAAHICYWE displays Target Concentration BLANK (phage screen NGS readout) of 0

According to the records, this sequence DPAVLQCYEAAFICEYM displays Target Concentration BLANK (phage screen NGS readout) of 0

According to the records, this sequence DPAIFNCTMAALECTQI displays Target Concentration BLANK (phage screen NGS readout) of 0

According to the records, this sequence DPAMIQCQWAAEHCELI displays Target Concentration BLANK (phage screen NGS readout) of 1

According to the records, this sequence DPADWICEHAALTCQEF displays Target Concentration BLANK (phage screen NGS readout) of 1

According to the records, this sequence DPAWILCDWAAMHCELV displays Target Concentration BLANK (phage screen NGS readout) of 0

According to the records, this sequence DPAILQCYEAAFSCHYQ displays Target Concentration BLANK (phage screen NGS readout) of 0

According to the records, this sequence DPAVVECYEAAYTCQYI displays Target Concentration BLANK (phage screen NGS readout) of 0

According to the records, this sequence DPAILDCQLAAIDCVYT displays Target Concentration BLANK (phage screen NGS readout) of 0

According to the records, this sequence DPAHWSCEWAAEHCRLI displays Target Concentration BLANK (phage screen NGS readout) of 0

According to the records, this sequence DPAVLECHIAAWECRMD displays Target Concentration BLANK (phage screen NGS readout) of 0
